Sourced from ChEMBL document CHEMBL1614629

# Lookup of reported clearance keyed by entry
- measurement-notes: Clearance in rat after iv administration
- Format: ADME, organism-based
- measurement-parameters: in vivo
Please reply with the bare figure in mL/min/kg and do not write the unit itself.

{"molecule": "CN(C)CCCC1(c2ccc(F)cc2)OCc2cc(C#N)ccc21 (centres undefined)", "clearance [mL/min/kg]": 82}

Prompt: Request the reported clearance associated with O=C(OC1C[C@@H]2CC3C[C@@H](C1)N2CC3O)c1c[nH]c2ccccc12 (some centres undefined)
Response: 94

Prompt: Another: CC1CCCC(C)N1CCCC(O)(c1ccccc1)c1ccccn1 (centres undefined)
Response: 23

Prompt: How about CN1C(=O)OC(C)(C)C1=O ?
Response: 5.7

====

molecules and their reported clearance
- measurement-notes: Clearance in monkey after iv administration
- Format: ADME, organism-based
- measurement-parameters: macaca, in vivo
Give the value, in units of mL/min/kg, as a plain number.

A selection of reference data follows.
{"molecule": "O=C(OC1C[C@@H]2CC3C[C@@H](C1)N2CC3O)c1c[nH]c2ccccc12 (some centres undefined)", "observed": 77}
{"molecule": "CC(C)NCC(O)COc1cccc2ccccc12 (centres undefined)", "observed": 14}
{"molecule": "C[C@@H](O)[C@H]1C(=O)N2C(C(=O)[O-])=C(SC3Cn4cnc[n+]4C3)[C@H](C)[C@H]12 (some centres undefined)", "observed": 5.3}
{"molecule": "C#CCCCC(=O)c1cc(C(C)(C)C)c(O)c(C(C)(C)C)c1", "observed": 17}
{"molecule": "CC(C)N(CCC(C(N)=O)(c1ccccc1)c1ccccn1)C(C)C (centres undefined) [DISOPYRAMIDE]", "observed": 19}
{"molecule": "CO/N=C(\\C(=O)N[C@@H]1C(=O)N2C(C(=O)[O-])=C(C[N+]34CCC(C(N)=O)(CC3)CC4)CS[C@H]12)c1nsc(N)n1", "observed": 3.4}
{"molecule": "Nc1nc(/C(=N/O)C(=O)N[C@@H]2C(=O)N3C(C(=O)O)=C(/C=C4\\CCN(CC(F)(F)F)C4=O)CS[C@H]23)cs1", "observed": 0.78}
{"molecule": "Cc1nc(=O)c(C#N)c(NCc2cccnc2)[nH]1", "observed": 13}

Prompt: Give the measured clearance of CCC1(C)CC(=O)NC1=O (centres undefined) [ETHOSUXIMIDE] .
Response: 0.33

====

- measurement-notes: Volume of distribution at steady state in rat after iv administration
- Type: ADME, organism-based
- measurement-parameters: in vivo
experimental-readout: Vdss (L/kg)
Return type: number; implicit unit L/kg.

Some compounds with known Vdss results, for comparison:
{"compound": "CO[C@@]1(NC(=O)C(C(=O)[O-])c2ccc(O)cc2)C(=O)N2C(C(=O)[O-])=C(CSc3nnnn3C)CO[C@@H]21.[Na+].[Na+] (stereo not given in full) [MOXALACTAM DISODIUM]", "experimental-readout": "Vdss", "observed": 0.28}
{"compound": "CO/N=C(\\C(=O)N[C@@H]1C(=O)N2C(C(=O)O)=C(CSc3nc(=O)c(=O)[nH]n3C)CS[C@H]12)c1csc(N)n1", "experimental-readout": "Vdss", "observed": 0.18}
{"compound": "O=c1[nH]cnc2c1ncn2[C@H]1CC[C@@H](CO)O1", "experimental-readout": "Vdss", "observed": 0.99}
{"compound": "Cc1cc(=O)n(-c2ccccc2)n1C [ANTIPYRINE]", "experimental-readout": "Vdss", "observed": 0.97}
{"compound": "CC(=N)N1CC[C@H](SC2=C(C(=O)O)N3C(=O)[C@H]([C@@H](C)O)[C@H]3C2)C1", "experimental-readout": "Vdss", "observed": 0.19}
{"compound": "O=[N+]([O-])O[C@@H]1CO[C@H]2[C@@H]1OC[C@@H]2O [ISOSORBIDE MONONITRATE]", "experimental-readout": "Vdss", "observed": 0.97}

Prompt: Given the compound O=C(c1ccccc1)c1ccc2n1CCC2C(=O)O (stereo not given) , what is its reported Vdss?
Response: 0.56

Prompt: # iterate: CN1CCN(c2c(F)cc3c(=O)c(C(=O)O)cn(CCF)c3c2F)CC1
Response: 1.3

Prompt: COc1ccc2c(c1)c(CC(=O)O)c(C)n2C(=O)c1ccc(Cl)cc1 , same question.
Response: 0.1
